Test: Cell viability assay (AlamarBlue)
Conditions: human, HepAD38 cells
QUANTITY_MEASURED: CC50 at 6 days

Example results:
COMPOUND | VAL
CN(C(=O)c1cnn2c1CN(C(=O)c1cc3ccccc3[nH]1)CC2)C1(c2ccncc2)CC1 | > 10 µM
CN(C(=O)c1cnn2c1CN(C(=O)c1cc3ccccc3[nH]1)CC2)C1(CO)CC1 | > 10 µM
O=C(c1cc2ccccc2[nH]1)N1CCn2ncc(S(=O)(=O)NCCO)c2C1 | > 10 µM
CC1Cn2ncc(C(=O)N(C)C3(COC(F)F)CC3)c2CN1C(=O)c1cc2ccccc2[nH]1 (centres unmarked) | > 10 µM
O=C(NC1(COC(F)F)CC1)c1cnn2c1CN(C(=O)c1cc3cc(F)c(F)cc3[nH]1)CC2 | > 10 µM

For each entry beneath this line, provide reported CC50 at 6 days.
1. O=C(c1cc2cc(F)c(Cl)cc2[nH]1)N1CCn2ncc(C(=O)N3CCC(O)CC34CC4)c2C1 (centres unmarked)
2. CC1Cn2ncc(C(=O)N[C@H](C)C(F)(F)F)c2CN1C(=O)c1cc2c(Cl)cccc2[nH]1 (some centres unmarked)
3. C[C@@H](NC(=O)c1cnn2c1CN(C(=O)c1cc3ccccc3[nH]1)CC2)C(F)(F)F

1: > 10 µM; 2: > 10 µM; 3: > 10 µM

====

Biological target: HBV core protein (C-terminal truncated core protein containing 149 amino acids of the N-terminal assembly domain)
Assay: Biochemical capsid assembly assay (fluorescence quenching)
Details: read-out: Assembly Activity; BODIPY-FL labelled core protein, assembly started with NaCl, read after 6 min
pIC50: −log10 of the molar value.
QUANTITY_MEASURED: pIC50

Example results:
INPUT_SMILES | pIC50
CN(C(=O)c1cnn2c1CN(C(=O)c1cc3c(Cl)cc(F)cc3[nH]1)CC2)C1(COC(F)F)CC1 | > 5.30
CN(CCO)C(=O)c1cnn2c1CN(C(=O)c1cc3c(F)cc(F)cc3[nH]1)CC2 | > 5.30
CN(C(=O)c1cnn2c1CN(C(=O)c1cc3ccccc3[nH]1)CC2)C1CCC1 | > 5.30

For each entry beneath this line, provide reported pIC50.
1. CN(C(=O)c1cnn2c1CN(C(=O)c1cc3ccccc3[nH]1)CC2)C1(COCCO)CC1
2. CNC(=O)c1cnn2c1CN(C(=O)c1cc3ccccc3[nH]1)CC2

1: > 5.30; 2: 5.00 to 5.30

For each entry beneath this line, provide reported pIC50.
1. C[C@@H](NC(=O)c1cnn2c1CN(C(=O)c1cc3ccccc3[nH]1)CC2)C(F)(F)F
2. CN(C(=O)c1cnn2c1CN(C(=O)c1cc3c(F)ccc(F)c3[nH]1)CC2)C1(CO)CC1

1. > 5.30
2. > 5.30

Please report the recorded pIC50 for "O=C(c1cc2ccccc2[nH]1)N1CCn2ncc(N3CCC4(CC4)C3=O)c2C1" .
5.00 to 5.30

====

Biological target: HBV core protein (C-terminal truncated core protein containing 149 amino acids of the N-terminal assembly domain)
Assay: Biochemical capsid assembly assay (fluorescence quenching)
Settings: read-out: Assembly Activity; BODIPY-FL labelled core protein, assembly started with NaCl, read after 6 min
pIC50: −log10 of the molar value.
QUANTITY_MEASURED: pIC50

COMPOUND | pIC50
O=C(c1cc2ccccc2[nH]1)N1CCn2ncc(C3(O)CCC3)c2C1 | 5.00 to 5.30
CN(C(=O)c1cnn2c1CN(C(=O)c1cc3ccccc3[nH]1)CC2)C1(COC(F)F)CC1 | > 5.30
CN(C(=O)c1cnn2c1CN(C(=O)c1cc3cc(F)c(Cl)cc3[nH]1)CC2)C1(COC(F)F)CC1 | > 5.30
CN(C)S(=O)(=O)c1cnn2c1CN(C(=O)c1cc3ccccc3[nH]1)CC2 | > 5.30
CN(C(=O)c1cnn2c1CN(C(=O)c1cc3ccccc3[nH]1)CC2)C1(c2ncccn2)CC1 | > 5.30
O=C(c1cc2ccccc2[nH]1)N1CCn2ncc(S(=O)(=O)N3CCC(O)CC3)c2C1 | > 5.30

For each entry beneath this line, provide reported pIC50.
1. COCC1(N(C)C(=O)c2cnn3c2CN(C(=O)c2cc4ccccc4[nH]2)C(C)C3)CC1 (single isomer, unassigned) [Example 17]
2. COCC1(N(C)S(=O)(=O)c2cnn3c2CN(C(=O)c2cc4ccccc4[nH]2)CC3)CC1
3. CN(C(=O)c1cnn2c1CN(C(=O)c1cc3ccccc3[nH]1)CC2)C1(CCOC(F)F)CCCC1
4. O=C(NC1(COC(F)F)CC1)c1cnn2c1CN(C(=O)c1cc3cc(F)c(Cl)cc3[nH]1)CC2
5. CNS(=O)(=O)c1cnn2c1CN(C(=O)c1cc3ccccc3[nH]1)CC2
6. Cc1cc(F)cc2[nH]c(C(=O)N3CCn4ncc(C(=O)N5CCCOCC56CC6)c4C3)cc12
7. O=C(c1cc2ccccc2[nH]1)N1CCn2ncc(C(=O)N3CCC(F)(F)C34CC4)c2C1

5.00 to 5.30
> 5.30
> 5.30
> 5.30
> 5.30
> 5.30
> 5.30
